Data origin: the supplement of paper PMC8253809

Tested on: HGGX39 (paediatric high-grade glioma line)
Test Details: growth inhibition (% activity, log2 RLU normalised to DMSO / staurosporine); higher = more growth inhibition
Study Conditions: 33 µM
Kindly supply the reported growth inhibition values for the records listed here.
Quick reminder: number only, in %, skip the unit.

Query: Indicate the recorded growth inhibition value for this molecule: "Cc1nnc(C(=O)NC(C)(C)c2nc(C(=O)NCc3ccc(F)cc3)c(O)c(=O)n2C)o1"
Reply: 2.25

Query: Indicate the recorded growth inhibition value for this molecule: "CC(=O)OCC(=O)[C@@]12N=C(C)O[C@@H]1C[C@H]1[C@@H]3CCC4=CC(=O)C=C[C@]4(C)[C@H]3[C@@H](O)C[C@@]12C"
Reply: 3.17

Query: Indicate the recorded growth inhibition value for this molecule: "Cc1cc2c(cc1S(N)(=O)=O)S(=O)(=O)CCC2"
Reply: 0.974

Query: Indicate the recorded growth inhibition value for this molecule: "Cc1cc(NC(=O)C2=C(O)c3ccccc3S(=O)(=O)N2C)no1"
Reply: -4.59

Query: Indicate the recorded growth inhibition value for this molecule: "CC(=O)OCC[N+](C)(C)C"
Reply: 1.63

* * *

Kindly supply the reported growth inhibition values for the records listed here.
System: SUDIPGIV (diffuse intrinsic pontine glioma line)
Test Details: growth inhibition (% activity, log2 RLU normalised to DMSO / staurosporine); higher = more growth inhibition
Study Conditions: 33 µM
Quick reminder: number only, in %, skip the unit.

Query: Indicate the recorded growth inhibition value for this molecule: "CN(C)C(=N)NC(=N)N"
Reply: -2.86

Query: Indicate the recorded growth inhibition value for this molecule: CN1CCCC(n2nc(Cc3ccc(Cl)cc3)c3ccccc3c2=O)CC1 (stereo not drawn)
Reply: 1.76

Query: Indicate the recorded growth inhibition value for this molecule: "CCCc1nc2c(C)cc(-c3nc4ccccc4n3C)cc2n1Cc1ccc(-c2ccccc2C(=O)O)cc1"
Reply: -2.37

Query: Indicate the recorded growth inhibition value for this molecule: "C[N+]1(C)CCC(=C(c2ccccc2)c2ccccc2)CC1"
Reply: 4.27

Query: Indicate the recorded growth inhibition value for this molecule: "CC1(C)S[C@@H]2[C@H](NC(=O)[C@H](NC(=O)N3CCN(S(C)(=O)=O)C3=O)c3ccccc3)C(=O)N2[C@H]1C(=O)O"
Reply: 0.286

Query: Indicate the recorded growth inhibition value for this molecule: Clc1ccc(C(Cn2ccnc2)OCc2ccc(Sc3ccccc3)cc2)c(Cl)c1 (stereo not drawn)
Reply: 11.4

Query: Indicate the recorded growth inhibition value for this molecule: "CO[C@H]1C[C@@H]2CC[C@@H](C)[C@@](O)(O2)C(=O)C(=O)N2CCCC[C@H]2C(=O)O[C@H]([C@H](C)C[C@@H]2CC[C@@H](OCCO)[C@H](OC)C2)CC(=O)[C@H](C)/C=C(\C)[C@@H](O)[C@@H](OC)C(=O)[C@H](C)C[C@H](C)/C=C/C=C/C=C/1C"
Reply: 1.16

Query: Indicate the recorded growth inhibition value for this molecule: CCN(Cc1ccncc1)C(=O)C(CO)c1ccccc1 (stereo not drawn)
Reply: -1.01

Query: Indicate the recorded growth inhibition value for this molecule: "Cc1c(-c2ccc(O)cc2)n(Cc2ccc(OCCN3CCCCCC3)cc2)c2ccc(O)cc12"
Reply: 18.8

Query: Indicate the recorded growth inhibition value for this molecule: "c1ccc2c(CC3=NCCN3)cccc2c1"
Reply: 1.67

Query: Indicate the recorded growth inhibition value for this molecule: "Nc1ccc(S(=O)(=O)Nc2nccs2)cc1"
Reply: -1.7

Query: Indicate the recorded growth inhibition value for this molecule: "CCC[C@H](NC(=O)[C@@H]1[C@H]2CCC[C@H]2CN1C(=O)[C@@H](NC(=O)[C@@H](NC(=O)c1cnccn1)C1CCCCC1)C(C)(C)C)C(=O)C(=O)NC1CC1"
Reply: 0.139

Query: Indicate the recorded growth inhibition value for this molecule: "COc1c2ccoc2cc2oc(=O)ccc12"
Reply: 0.44

Query: Indicate the recorded growth inhibition value for this molecule: "N[C@@H]1CONC1=O"
Reply: -1.17

Query: Indicate the recorded growth inhibition value for this molecule: "O=C(CCCN1CCN(c2ccccn2)CC1)c1ccc(F)cc1"
Reply: 0.0159

Query: Indicate the recorded growth inhibition value for this molecule: "O=c1ccc2ccccc2o1"
Reply: -0.0159

Query: Indicate the recorded growth inhibition value for this molecule: "CCCNC(=O)NS(=O)(=O)c1ccc(Cl)cc1"
Reply: 2.61

Query: Indicate the recorded growth inhibition value for this molecule: "O=C(O)CCCN1CCC(O[C@@H](c2ccc(Cl)cc2)c2ccccn2)CC1"
Reply: -0.161

Query: Indicate the recorded growth inhibition value for this molecule: "O=C(O)c1cc(/N=N/c2ccc(S(=O)(=O)Nc3ccccn3)cc2)ccc1O"
Reply: 0.115

Query: Indicate the recorded growth inhibition value for this molecule: "CC[C@H](C)C(=O)O[C@H]1C[C@@H](C)C=C2C=C[C@H](C)[C@H](CC[C@@H]3C[C@@H](O)CC(=O)O3)[C@H]21"
Reply: 18.1

Query: Indicate the recorded growth inhibition value for this molecule: "CCOC(=O)[C@H](CCc1ccccc1)N[C@H]1CS[C@H](c2cccs2)CN(CC(=O)O)C1=O"
Reply: -0.624

Query: Indicate the recorded growth inhibition value for this molecule: "CN/C(=N\CCSCc1nc[nH]c1C)NC#N"
Reply: -0.184

Query: Indicate the recorded growth inhibition value for this molecule: "Nc1nccs1"
Reply: 0.246

Query: Indicate the recorded growth inhibition value for this molecule: "C=C(c1ccc(C(=O)O)cc1)c1cc2c(cc1C)C(C)(C)CCC2(C)C"
Reply: 6.25

Query: Indicate the recorded growth inhibition value for this molecule: "N=C(N)NCCC[C@H](N)C(=O)O"
Reply: -1.68

Query: Indicate the recorded growth inhibition value for this molecule: Clc1ccc(C(Cn2ccnc2)OCc2csc3c(Cl)cccc23)c(Cl)c1 (stereo not drawn)
Reply: 13.8

Query: Indicate the recorded growth inhibition value for this molecule: "C[N+](C)(CCOc1ccccc1)Cc1ccccc1.O=C([O-])c1cc2ccccc2cc1O"
Reply: 2.44

Query: Indicate the recorded growth inhibition value for this molecule: "CC(=O)O[C@@]12CO[C@@H]1C[C@H](O)[C@@]1(C)C(=O)[C@H](O)C3=C(C)[C@@H](OC(=O)[C@H](O)[C@@H](NC(=O)OC(C)(C)C)c4ccccc4)C[C@@](O)([C@@H](OC(=O)c4ccccc4)[C@H]21)C3(C)C"
Reply: 21.6

Query: Indicate the recorded growth inhibition value for this molecule: "CN(C)CCCN1c2ccccc2Sc2ccc(Cl)cc21"
Reply: -0.706

Query: Indicate the recorded growth inhibition value for this molecule: "CCN(CC)CC(=O)Nc1c(C)cccc1C"
Reply: 0.232

Query: Indicate the recorded growth inhibition value for this molecule: "CC(C)OC(=O)C(C)(C)Oc1ccc(C(=O)c2ccc(Cl)cc2)cc1"
Reply: 1.24

Query: Indicate the recorded growth inhibition value for this molecule: "N[C@@H](CSCCCO)C(=O)O"
Reply: -4.19

Query: Indicate the recorded growth inhibition value for this molecule: "O=C(O)c1cccnc1Nc1cccc(C(F)(F)F)c1"
Reply: -3.93

Query: Indicate the recorded growth inhibition value for this molecule: "CCOC(=O)C1=C(C)NC(C)=C(C(=O)OCC)C1c1ccccc1/C=C/C(=O)OC(C)(C)C"
Reply: 12.7

Query: Indicate the recorded growth inhibition value for this molecule: COc1ccc(-c2nc3ccc(C4=NNC(=O)CC4C)cc3[nH]2)cc1 (stereo not drawn)
Reply: 5.46

Query: Indicate the recorded growth inhibition value for this molecule: CCCCCCCCCC(=O)NC1C(Oc2c3cc4cc2Oc2ccc(cc2Cl)C(OC2OC(CO)C(O)C(O)C2NC(C)=O)C2NC(=O)C(NC(=O)C4NC(=O)C4NC(=O)C(Cc5ccc(c(Cl)c5)O3)NC(=O)C(N)c3ccc(O)c(c3)Oc3cc(O)cc4c3)c3ccc(O)c(c3)-c3c(OC4OC(CO)C(O)C(O)C4O)cc(O)cc3C(C(=O)O)NC2=O)OC(CO)C(O)C1O (stereo not drawn)
Reply: -1.1

Query: Indicate the recorded growth inhibition value for this molecule: "C=CCc1cc(OC)c(O)c(C(=O)NCCO)c1"
Reply: -1.83

Query: Indicate the recorded growth inhibition value for this molecule: "CCC(=O)O[C@]1(C(=O)SCF)[C@H](C)C[C@H]2[C@@H]3C[C@H](F)C4=CC(=O)C=C[C@]4(C)[C@@]3(F)[C@@H](O)C[C@@]21C"
Reply: -3.9

* * *

Tested on: DIPGX37 (H3.3 K27M diffuse intrinsic pontine glioma line)
Test Details: growth inhibition (% activity, log2 RLU normalised to DMSO / staurosporine); higher = more growth inhibition
Study Conditions: 33 µM
Kindly supply the reported growth inhibition values for the records listed here.
Quick reminder: number only, in %, skip the unit.

Query: Indicate the recorded growth inhibition value for this molecule: "CCCCCCNC(=O)n1cc(F)c(=O)[nH]c1=O"
Reply: 0.97

Query: Indicate the recorded growth inhibition value for this molecule: CN1CCN2c3ccccc3Cc3ccccc3C2C1 (stereo unspecified)
Reply: -0.487

Query: Indicate the recorded growth inhibition value for this molecule: "Clc1ccccc1CN1CCc2sccc2C1"
Reply: 3.08

Query: Indicate the recorded growth inhibition value for this molecule: CCN1CCCC1CNC(=O)c1cc(S(N)(=O)=O)ccc1OC (stereo unspecified)
Reply: 3.95

Query: Indicate the recorded growth inhibition value for this molecule: "Oc1cc(O)c(Cl)cn1"
Reply: -1.68

Query: Indicate the recorded growth inhibition value for this molecule: "CN[C@@H]1[C@H](O)[C@H](NC)[C@H]2O[C@@]3(O)C(=O)C[C@@H](C)O[C@H]3O[C@@H]2[C@H]1O"
Reply: 1.47
